- target_system: unidentified caltrin receptor on primary mouse calvarial osteoblasts (mouse)
- protocol_description: competition curve: unlabelled caltrin against 10 ng 125I-caltrin on primary calvarial osteoblasts, 4 C, 2 h
measure: Kd (nM)
One number for each entry, in nM.

Request: Given the binder recombinant caltrin (mouse, V5/His-tagged, secreted from baculovirus-infected Sf-9 cells) (ligand, not shown: small tags and cut ends) LICNSCEKSRDSRCTMPQSRCVAKPGESCSTVSHFVGTKHVYSKQMCSPQCKEKQLNTGKKLIYIMCCEKNLCNSF , what is its reported Kd?
Response: 2.2

All values here come from patent US20080119406A1.
